# assay notes: CCTE_Shafer_MEA_acute_per_network_burst_spike_number_std: CCTE's Neural Acute Assay for Standard Deviation of Number of Spikes in a Network Burst, Shafer Lab (AID 2284020);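 further: fitted for decrease in spike-number SD versus DMSO so actives lower it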
Active and inactive are the calls of the source. How the source made its calls: active means hit-call score of the fitted dose curve at least 0.9, where 1 is the maximum; inactive means score below 0.9.
Form entry, call: pick from Yes = active, No = inactive

molecule	group label
CCCOc1sc(C(=O)N2CCC(c3cc(CN)ccc3F)CC2)c(C)c1Br	No
CC(C)(C)c1cc(C(C)(C)C)c(O)c(C(C)(C)C)c1	No

Now, please, on to the next molecule.
Which outcome was assigned to CC(C)CCCCCCOC(=O)CCCCC(=O)OCCCCCCC(C)C in this test?
No

----------
# assay notes: APR_HepG2_CellCycleArrest_24hr: Apredica 24-hour HepG2 Assay for Cell Cycle Arrest (AID 2282905);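 further: cell cycle arrest scored as ratio of 2N to 4N nuclear DNA content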
# test settings: imaging, actives raise or lower the signal
Calls of active or inactive are those of the source. How the source made its calls: active means hit-call score of the fitted dose curve at least 0.9, where 1 is the maximum; inactive means score below 0.9.
Form entry, call: pick from active, inactive

Some solved entries appear below for comparison.
molecule	group label
N#C[C@@H]1CC(F)(F)CN1C(=O)CNC1CC2CCC(C1)N2c1ncccn1 (stereo not given in full)	inactive
CC(C)(C)c1cc(C(C)(C)C)c(O)c(C(C)(C)C)c1	inactive
CCCOC(=O)c1ccc(O)cc1	inactive
OC1CCCCC1	inactive

Which outcome was assigned to O=C(/C=C/c1ccc(O)cc1)CC(=O)/C=C/c1ccc(O)cc1 in this test?
inactive

Which outcome was assigned to O=C(OCCOCCOC(=O)c1ccccc1)c1ccccc1 in this test?
inactive

Which outcome was assigned to Cc1cc(C)c(O)c(C)c1 in this test?
inactive

Which outcome was assigned to ClC1=C(Cl)C(Cl)(Cl)C(Cl)=C1Cl in this test?
inactive

Which outcome was assigned to CC[C@H](c1ccc(O)cc1)[C@@H](CC)c1ccc(O)cc1 in this test?
inactive

----------
# assay notes: ACEA_AR_agonist_AUC_viability: ACEA Biosciences xCELLigence Real-Time Cell Analysis on Androgen Receptor Agonism for Viability (AID 2283775)
Records with an inconclusive call do not appear. Activity calls are given as the source filed them. How the source made its calls: active means hit-call score of the fitted dose curve at least 0.9, where 1 is the maximum; inconclusive means response in the unintended direction; inactive means score below 0.9.
Form entry, call: pick from active, inactive

Which outcome was assigned to O=C(/C=C/c1ccc(O)cc1)CC(=O)/C=C/c1ccc(O)cc1 in this test?
active

Which outcome was assigned to CCOC(=O)CC(O)(CC(=O)OCC)C(=O)OCC in this test?
inactive

----------
# assay notes: APR_HepG2_p53Act_24hr: Apredica 24-hour HepG2 Assay for p53 Activation (AID 2282913);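 further: p53 protein immunofluorescence averaged per cell in HepG2 with Hoechst nuclei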
# test settings: high-content imaging, actives raise or lower the signal
The source made the active and inactive calls. Rule for the calls: active = hit-call score of the fitted dose curve at least 0.9, where 1 is the maximum; inactive = score below 0.9.
Form entry, call: pick from active, inactive

Some solved entries appear below for comparison.
compound	group label
Cc1oc(-c2ccccc2)nc1CCOc1ccc(C[C@H](Nc2ccccc2C(=O)c2ccccc2)C(=O)O)cc1	active
CC(C)CCCCCCOC(=O)CCCCC(=O)OCCCCCCC(C)C	inactive
CC(C)(C)c1cccc(C(C)(C)C)c1O	active
CCCCCCCC(=O)O	inactive
OCCC(F)(F)C(F)(F)C(F)(F)C(F)(F)C(F)(F)C(F)(F)C(F)(F)C(F)(F)F	active

Which outcome was assigned to NC(=O)N1C(=O)C(C(=O)c2cc(Cl)cs2)c2cc(F)c(Cl)cc21 (stereo not drawn) in this test?
active

Which outcome was assigned to NC(=O)N(O)[C@@H]1C=C[C@H](Oc2cccc(Oc3ccc(F)cc3)c2)C1 in this test?
active

Which outcome was assigned to Oc1cc2ccccc2c2ccccc12 in this test?
active

Which outcome was assigned to OC1CCCCC1 in this test?
inactive

Which outcome was assigned to CCCCOCCO in this test?
inactive
